// values below are reported Cmax
- run description: Cmax in CD1 mouse at 45 mg/m'2 of body surface, po administered as single dose
- Assay type: ADME, organism-based
- Parameters: route oral
- experimental conditions: in vivo
quantity kind: Cmax (nM)

INSERT INTO measurements (line_notation, experimental_result) VALUES
  ('COc1cc2c(cc1C(N)=O)CC[C@@H]1[C@@H]2CC[C@]2(C)C=CC[C@@H]12', 1430),
  ('COc1cc2c(cc1C(N)=O)CC[C@@H]1[C@@H]2CC[C@]2(C)CCC[C@@H]12', 504),
  ('C=C1CC[C@H]2[C@@H]3CCc4cc(C(N)=O)c(OC)cc4[C@H]3CC[C@]12C', 334),
  ('COc1cc2c(cc1O)CC[C@@H]1[C@@H]2CC[C@]2(C)[C@@H](O)CC[C@@H]12', 294);
